# Test system: human pancreatic lipase (hPL) (Homo sapiens, UniProt P16233)
# Construct: gene PNLIP
# Sequence (P16233 17-465): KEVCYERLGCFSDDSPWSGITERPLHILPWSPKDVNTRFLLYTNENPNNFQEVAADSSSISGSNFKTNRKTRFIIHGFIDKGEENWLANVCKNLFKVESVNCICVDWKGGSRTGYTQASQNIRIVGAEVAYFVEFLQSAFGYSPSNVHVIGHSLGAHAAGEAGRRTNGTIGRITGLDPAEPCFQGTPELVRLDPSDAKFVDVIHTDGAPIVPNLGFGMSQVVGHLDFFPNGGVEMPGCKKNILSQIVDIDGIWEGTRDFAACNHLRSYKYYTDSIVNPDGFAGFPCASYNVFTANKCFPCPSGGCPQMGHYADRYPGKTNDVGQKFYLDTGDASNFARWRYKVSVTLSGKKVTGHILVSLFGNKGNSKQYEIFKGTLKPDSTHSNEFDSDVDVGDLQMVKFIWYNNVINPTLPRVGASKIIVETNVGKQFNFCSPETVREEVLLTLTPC
# Experimental details: RLE-based fluorescence hydrolysis assay, dose-inhibition
# Type: biochemical
Structures can show the parent of a compound that is named as a salt.
Assay endpoint: pIC50
pIC50 field: float, defined as -log10 of concentration (mol/L).

These recorded examples may help you get a feel for the data.
CNC(=O)c1cc(Oc2ccc(NC(=O)Nc3ccc(Cl)c(C(F)(F)F)c3)cc2)ccn1 [f1, sorafenib tosylate] | 4.81
O=C(c1ccc(OCCN2CCCCC2)cc1)c1c(-c2ccc(O)cc2)sc2cc(O)ccc12 [d1, raloxifene] | 5.25

Next item in the queue.
Lookup: // fetch human pancreatic lipase (hPL) (Homo sapiens, UniProt P16233) pIC50 for CC(C)c1cc2c(c(O)c1O)[C@@]13CCCC(C)(C)[C@@H]1C[C@@H]2OC3=O
Found: 6.24

Taken from paper PMC9953885.
